target entity: WT rat cPEPCK (Rattus norvegicus, UniProt P07379)
Sequence (P07379 whole entry): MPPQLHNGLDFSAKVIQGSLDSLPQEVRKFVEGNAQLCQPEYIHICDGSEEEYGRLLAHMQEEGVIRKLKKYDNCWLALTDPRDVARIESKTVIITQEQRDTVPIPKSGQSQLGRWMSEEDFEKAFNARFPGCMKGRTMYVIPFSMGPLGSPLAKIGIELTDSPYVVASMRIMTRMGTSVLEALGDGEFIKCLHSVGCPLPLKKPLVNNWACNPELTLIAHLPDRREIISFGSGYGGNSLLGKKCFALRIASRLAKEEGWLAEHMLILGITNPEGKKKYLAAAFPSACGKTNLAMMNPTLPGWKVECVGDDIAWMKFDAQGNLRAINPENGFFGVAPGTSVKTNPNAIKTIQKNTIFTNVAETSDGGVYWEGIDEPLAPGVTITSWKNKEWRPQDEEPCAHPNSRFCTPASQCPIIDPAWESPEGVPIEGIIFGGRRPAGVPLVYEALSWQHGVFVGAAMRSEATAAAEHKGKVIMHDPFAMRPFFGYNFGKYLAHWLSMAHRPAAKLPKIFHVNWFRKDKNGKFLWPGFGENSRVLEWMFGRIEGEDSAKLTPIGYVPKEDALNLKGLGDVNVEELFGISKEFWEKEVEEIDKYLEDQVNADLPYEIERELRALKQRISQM
procedure details: Inhibitor assays with substrate analogues
condition summary: Wild-type; assay B, against PEP; 25 °C
pKi: −log10 of the molar value.
measurement name: pKi

| compound | measurement name | reported |
| --- | --- | --- |
| O=C(O)COP(=O)(O)O [PGA, 2-phosphoglycolate] | pKi | 2.60 |
